From: ChEMBL document CHEMBL1126257

System: Staphylococcus aureus
experimental protocol: animal or person
condition label: in Mus musculus, po, read-out: PD50
Description: In vivo potency on systemic infection caused by Staphylococcus aureus A9537 after oral administration to mice expressed as median protective dose.
assay readout: ED50 (mg/kg)

> print(dat)
                                   molecule  value.measured
1  C[C@H]1CN(c2nc3c(cc2F)c(=O)c(C(=O)O)cn3C(C)(C)C)C[C@H]1N               1
2  CN[C@H]1CCN(c2nc3c(cc2F)c(=O)c(C(=O)O)cn3C(C)(C)C)C1            0.31
3  O=C(O)c1cn(C2CC2)c2cc(N3CCNCC3)c(F)cc2c1=O               4
4  C[C@@H]1CN(c2nc3c(cc2F)c(=O)c(C(=O)O)cn3C(C)(C)C)C[C@H]1N             1.2
5  C[C@@H]1C[C@@H](N)CN1c1nc2c(cc1F)c(=O)c(C(=O)O)cn2C(C)(C)C (stereo in doubt; 68)             0.9
